Origin of measurements: patent US4769389A

PROTOCOL_DETAILS: in vivo
CONDITION_NOTES: mouse, iv
Lab note: compare LD50 with 400 mg/kg, writing Criterion met if less and Criterion not met if equal or more.

Example cases with answers are listed next.
COMPOUND	ASSIGNED_CATEGORY
CCCCCN(CCCOCC)C(=O)C(CCC(=O)O)NC(=O)c1ccc(Cl)c(Cl)c1 (stereo not drawn)	Criterion met
CCCCCN(CCOCC)C(=O)C(CCC(=O)O)NC(=O)c1ccc(Cl)c(Cl)c1 (stereo not drawn)	Criterion met
CCCCCN(CCCOC)C(=O)C(CCC(=O)O)NC(=O)c1ccc(C)c(C)c1 (stereo not drawn)	Criterion not met
CCCN(CCC)C(=O)C(CCC(=O)O)NC(=O)c1ccccc1 (stereo not drawn) [Proglumide, reference compound]	Criterion not met
CCCCCN(CCCOC)C(=O)C(CC(=O)O)NC(=O)c1ccc(Cl)c(Cl)c1 (stereo not drawn)	Criterion met

Strictly below 400 mg/kg: is that where LD50 of COCCCN(CCCC(C)C)C(=O)C(CCC(=O)O)NC(=O)c1ccc(Cl)c(Cl)c1 (stereo not drawn) sits?
Criterion met

Strictly below 400 mg/kg: is that where LD50 of COCCCN(CCC(C)C)C(=O)C(CCC(=O)O)NC(=O)c1ccc(Cl)c(Cl)c1 (stereo not drawn) sits?
Criterion met

Strictly below 400 mg/kg: is that where LD50 of CCCCCN(CCCOC)C(=O)C(CCC(=O)O)NC(=O)c1ccc(F)c(F)c1 (stereo not drawn) sits?
Criterion not met

Strictly below 400 mg/kg: is that where LD50 of CCCCCN(CCOC)C(=O)C(CCC(=O)O)NC(=O)c1ccc(Cl)c(Cl)c1 (stereo not drawn) sits?
Criterion not met
